tested on: L1210 murine leukemia cells; conditions: Table 9
parameter measured: Cytotoxicity L1210 IC50 (µg/mL)
Report the value in µg/mL with no unit label.

query: Consider the compound `CC[C@H](C)[C@H]1NC(=O)[C@@H](NC(=O)[C@@H](CC(C)C)N(C)C(=O)[C@@H]2CCCN2C(=O)[C@H](C)O)[C@@H](C)OC(=O)[C@H](Cc2ccc(O)cc2)NC(=O)[C@@H]2CCCN2C(=O)[C@H](CC(C)C)NC(=O)[C@@H](C)C(=O)[C@H](C(C)C)OC(=O)C[C@@H]1O` and give its measured Cytotoxicity L1210 IC50.
result: 0.03

###

Items are presented alongside their recorded Inhibition of [3H]didemnin B binding (%).
Test system: Nb2 cells, rat T-cell node lymphoma
Experiment: Competitive binding with [3H]didemnin B to Nb2 cells
Settings: 0.1 μg/mL; 3 h at 37° C.
Protocol: The immunosuppressive assay was performed by measuring competitive binding of tested compounds with [^3 H]didemnin B to Nb2 cells, rat T-cell node lymphoma. See, Russell, D. H., et al., J. Immunology, 1987, 138, 276-284. ^a Competing didemnins incubated with approximately 25 ng of [^3
Numbered stars: 1 amine (or outer) side, 2 acyl side, 3 side chain; on linkers, the order of the positions; unused ones are H or OH. Bridge positions count the residues as written; N and C are the ends. Square brackets hold non-standard residues; d marks the D form. Peptide text beside a SMILES is read from it. * marks the point of attachment. X4 = CC[C@H](C)[C@@H](N[*:1])[C@@H](O)CC(=O)O[C@@H](C(=O)[C@H](C)C(=O)[*:2])C(C)C; X1 = CC[C@H](C)[C@@H](N[*:1])[C@@H](O)CC(=O)O[C@H](C(=O)[C@H](C)C(=O)[*:2])C(C)C; NMeY = CN[C@@H](Cc1ccc(O)cc1)C(=O)O; dNMeL = CN[C@H](CC(C)C)C(=O)O; Propionyl = CCC(=O)*
// units = %; emit number, no label

Previously resolved entries follow.
[[record]]
compound = "CCC(=O)N(C)[C@H](CC(C)C)C(=O)N[C@@H]1C(=O)N[C@H]([C@@H](C)CC)[C@@H](O)CC(=O)O[C@@H](C(C)C)C(=O)[C@H](C)C(=O)N[C@@H](CC(C)C)C(=O)N2CCC[C@H]2C(=O)N(C)[C@@H](Cc2ccc(OC)cc2)C(=O)O[C@@H]1C [(N-Propionyl)Didemnin A (98), N-propionyl-didemnin A] (Propionyl-[dNMeL]T[X1]LP[NMeY](Me); ester 2-C)"
target_system = "Nb2 cells, rat T-cell node lymphoma"
test_value = 40

[[record]]
compound = "CC[C@H](C)[C@H]1NC(=O)[C@@H](NC(=O)[C@@H](CC(C)C)N(C)C(=O)[C@@H]2CCCN2C(=O)C(C)O)[C@@H](C)OC(=O)[C@H](Cc2ccc(OC)cc2)N(C)C(=O)[C@@H]2CCCN2C(=O)[C@H](CC(C)C)NC(=O)[C@@H](C)C(=O)[C@H](C(C)C)OC(=O)C[C@@H]1O (stereo partly drawn) [Didemnin B (17), Didemnin B, reference compound]"
target_system = "Nb2 cells, rat T-cell node lymphoma"
test_value = 59

[[record]]
compound = "CC[C@H](C)[C@@H](NC(=O)[C@@H](NC(=O)[C@@H](CC(C)C)NC)[C@@H](C)O)[C@@H](O)CC(=O)O[C@H](C(=O)[C@H](C)C(=O)N[C@@H](CC(C)C)C(=O)N1CCC[C@H]1C(=O)N(C)[C@@H](Cc1ccc(OC)cc1)C(=O)O)C(C)C [Acyclodidemnin A (16), Acyclodidemnin A] (H-[dNMeL]T[X1]LP[NMeY](Me)-OH)"
target_system = "Nb2 cells, rat T-cell node lymphoma"
test_value = 6

[[record]]
compound = "CC[C@H](C)[C@H]1NC(=O)[C@@H](NC(=O)[C@@H](CC(C)C)N(C)C(=O)[C@@H]2CCCN2C(C)=O)[C@@H](C)OC(=O)[C@H](Cc2ccc(OC)cc2)N(C)C(=O)[C@@H]2CCCN2C(=O)[C@H](CC(C)C)NC(=O)[C@@H](C)C(=O)[C@H](C(C)C)OC(=O)C[C@@H]1O [[Acetyl^9]Didemnin B (103), [Acetyl^9]didemnin B] (Ac-P[dNMeL]T[X1]LP[NMeY](Me); ester 3-C)"
target_system = "Nb2 cells, rat T-cell node lymphoma"
test_value = 67

[[record]]
compound = "CC[C@H](C)[C@H]1NC(=O)[C@@H](NC(=O)[C@@H](CC(C)C)NC)[C@@H](C)OC(=O)[C@H](Cc2ccc(OC)cc2)N(C)C(=O)[C@@H]2CCCN2C(=O)[C@H](CC(C)C)NC(=O)[C@@H](C)C(=O)[C@H](C(C)C)OC(=O)C[C@@H]1OC(C)=O"
target_system = "Nb2 cells, rat T-cell node lymphoma"
test_value = 15


query: Quick one: Inhibition of [3H]didemnin B binding (%) of CC[C@H](C)[C@H]1NC(=O)[C@@H](NC(=O)[C@@H](CC(C)C)NC)[C@@H](C)OC(=O)[C@H](Cc2ccc(OC)cc2)N(C)C(=O)[C@@H]2CCCN2C(=O)[C@H](CC(C)C)NC(=O)[C@@H](C)C(=O)[C@@H](C(C)C)OC(=O)C[C@@H]1O [Epididemnin A (15), Epididemnin A] (H-[dNMeL]T[X4]LP[NMeY](Me); ester 2-C) ?
result: 9

query: Proceed to `CC[C@H](C)[C@H]1NC(=O)[C@@H](NC(=O)[C@@H](CC(C)C)N(C)C(=O)[C@@H]2CCCN2C(=O)[C@H](C)O)[C@@H](C)OC(=O)[C@H](Cc2ccc(O)cc2)NC(=O)[C@@H]2CCCN2C(=O)[C@H](CC(C)C)NC(=O)[C@@H](C)C(=O)[C@H](C(C)C)OC(=O)C[C@@H]1O`
result: 4
